Counter-ions that a name gives are not always drawn. Starred links: 1 amine or outer side, 2 acyl side, 3 side chain; linkers in the order of their positions; H or OH if unused. Non-standard residues stand in square brackets, D forms with d. Residues, ends and D or L forms follow the SMILES beside them. Groups on a side chain read outwards from the residue. *: point of attachment. DOTA = O=C(O)CN1CCN(CC(=O)O)CCN(CC(=O)*)CCN(CC(=O)O)CC1; Trp(7-aza) = N[C@@H](Cc1c[nH]c2ncccc12)C(=O)O; Phe(4-CH2NH2) = NCc1ccc(C[C@H](N)C(=O)O)cc1; Piperazinyl(4-CH2COOH) = O=C(O)CN1CCN(*)CC1; NMeF = CN[C@@H](Cc1ccccc1)C(=O)O; Ahp(2) = CCCCC[C@H](N)C(=O)O; hSer = N[C@@H](CCO)C(=O)O; AEEA = NCCOCCOCC(=O)O; CO = O=C([*:1])[*:2]; Propyl = CCC*
List of IC50 tested on human FAP (Homo sapiens, UniProt Q12884).
Sequence (Q12884 26-760): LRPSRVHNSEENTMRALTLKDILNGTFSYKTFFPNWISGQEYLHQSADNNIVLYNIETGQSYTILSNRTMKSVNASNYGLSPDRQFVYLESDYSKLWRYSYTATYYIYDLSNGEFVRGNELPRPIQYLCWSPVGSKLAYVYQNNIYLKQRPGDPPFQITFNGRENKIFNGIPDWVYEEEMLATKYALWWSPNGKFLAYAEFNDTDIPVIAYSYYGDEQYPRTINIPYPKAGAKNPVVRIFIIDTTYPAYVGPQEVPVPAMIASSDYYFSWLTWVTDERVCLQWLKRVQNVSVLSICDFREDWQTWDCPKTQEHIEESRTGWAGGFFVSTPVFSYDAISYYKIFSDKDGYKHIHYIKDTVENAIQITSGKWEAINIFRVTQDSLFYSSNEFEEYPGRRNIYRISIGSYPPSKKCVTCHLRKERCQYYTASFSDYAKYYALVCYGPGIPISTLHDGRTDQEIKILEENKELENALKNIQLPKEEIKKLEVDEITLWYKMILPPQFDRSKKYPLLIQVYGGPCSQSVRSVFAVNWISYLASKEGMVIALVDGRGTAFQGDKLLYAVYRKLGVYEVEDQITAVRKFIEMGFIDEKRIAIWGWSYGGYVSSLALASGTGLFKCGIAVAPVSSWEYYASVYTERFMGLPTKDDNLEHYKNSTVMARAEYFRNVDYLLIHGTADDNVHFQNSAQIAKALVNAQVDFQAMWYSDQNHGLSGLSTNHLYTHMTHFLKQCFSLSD
Numbers only, in nM.

| compound | subject.of.test | IC50, nM |
| --- | --- | --- |
| CCCCCC[C@@H]1NC(=O)[C@H](Cc2ccc(CNC(=O)COCCOCCNC(=O)CCC(C(=O)O)N3CCN(CC(=O)O)CCN(CC(=O)O)CC3)cc2)NC(=O)[C@H](Cc2ccccc2)N(C)C(=O)CNC(=O)CNC(=O)[C@H]2CCCN2C(=O)[C@H](CC(=O)O)NC(=O)[C@H](CCCCNC(=O)N2CCN(CC(=O)O)CC2)NC(=O)CNC(=O)[C@H](Cc2c[nH]c3ccccc23)NC1=O (stereo partly drawn) [Example B38] | human FAP (Homo sapiens, UniProt Q12884) | 0.031 |
| CCCOCC[C@@H]1NC(=O)[C@H](Cc2ccc(CNC(=O)COCCOCCNC(=O)CN3CCN(CC(=O)O)CCN(CC(=O)O)CCN(CC(=O)O)CC3)cc2)NC(=O)[C@H](Cc2ccccc2)N(C)C(=O)CNC(=O)CNC(=O)[C@H]2CCCN2C(=O)[C@H](CC(=O)O)NC(=O)[C@H](CCCCNC(=O)N2CCN(CC(=O)O)CC2)NC(=O)CNC(=O)[C@H](Cc2c[nH]c3ccccc23)NC1=O [Example B2] (cyclo(D[dP]GG[NMeF][Phe(4-CH2NH2)]([AEEA-DOTA])[hSer](Propyl)WGK([CO-Piperazinyl(4-CH2COOH)]))) | human FAP (Homo sapiens, UniProt Q12884) | 0.007 |

For CCCCC[C@@H]1NC(=O)[C@H](Cc2ccc(O)cc2)NC(=O)[C@H](Cc2ccccc2)N(C)C(=O)CNC(=O)[C@H](CCCCN)NC(=O)[C@H]2CCCN2C(=O)[C@H](CC(=O)O)NC(=O)[C@H](Cc2ccc(O)cc2)NC(=O)CNC(=O)[C@H](Cc2c[nH]c3ncccc23)NC1=O [Example A26, TFA salt] (cyclo([Ahp(2)][Trp(7-aza)]GYD[dP]KG[NMeF]Y)) the compound record lists IC50 as 0.47
